Data credit: patent US20240287154A1

Experiment: in vitro
Conditions: mouse, plasma
Protocol: Pooled mouse plasma was prepared and stored at −80° C. prior to use. 396 μL mouse plasma was incubated at 37° C. for 5 minutes in 1.5 mL microcentrifuge tubes. 4 μL of 100 μM test or control compound/peptide was added to each tube and incubated for 0.5, 15, 30, 60, 120, or 240 minutes. […] The natural log peak area ratio (compound peak […] area/internal standard peak area) was plotted against time and the gradient of the line determined.
Non-standard residues stand in square brackets, D forms with d. Residues, ends and D or L forms follow the SMILES beside them. Phe(4-Br) = N[C@@H](Cc1ccc(Br)cc1)C(=O)O; NMeY = CN[C@@H](Cc1ccc(O)cc1)C(=O)O; Nle = CCCC[C@H](N)C(=O)O; Aib = CC(C)(N)C(=O)O
# thresholds on remaining at 0.5 h, 1 µM define classes: low = under 0.1%, medium = from 0.1% up to 0.3%, high = 0.3% and over

Completed entries (count: 5):
[Q] Kindly identify the class of CCCC[C@H](NC(=O)[C@@H](NC(=O)[C@H](Cc1ccc(O)cc1)NC)C(C)C)C(=O)N[C@H](C)C(=O)N[C@@H](Cc1c[nH]cn1)C(=O)N[C@@H](Cc1ccccc1)C(=O)N[C@@H](CCCNC(=N)N)C(=O)N[C@H](Cc1c[nH]c2ccccc12)C(=O)N[C@@H](CC(=O)O)C(N)=O [CTX-1141] (H-[NMeY]V[Nle][dA]HFR[dW]D-NH2) .
[A] high

[Q] Which band does CCCC[C@H](NC(=O)[C@@H](NC(=O)[C@@H](N)Cc1ccc(O)cc1)C(C)C)C(=O)NC(C)(C)C(=O)N[C@@H](Cc1c[nH]cn1)C(=O)N[C@@H](Cc1ccccc1)C(=O)N[C@@H](CCCNC(=N)N)C(=O)N[C@H](Cc1c[nH]c2ccccc12)C(=O)N[C@@H](CC(=O)O)C(=O)N[C@@H](CCCNC(=N)N)C(=O)N[C@@H](Cc1ccccc1)C(=O)NCC(=O)O [CTX-1134] (H-YV[Nle][Aib]HFR[dW]DRFG-OH) fall in?
[A] medium

[Q] Hi, small favor: classify CCCC[C@H](NC(=O)[C@@H](NC(=O)[C@H](N)Cc1ccc(O)cc1)C(C)C)C(=O)N[C@H](C)C(=O)N[C@@H](Cc1c[nH]cn1)C(=O)N[C@@H](Cc1ccccc1)C(=O)N[C@@H](CCCNC(=N)N)C(=O)N[C@H](Cc1c[nH]c2ccccc12)C(=O)N[C@@H](CC(=O)O)C(=O)N[C@@H](CCCNC(=N)N)C(=O)N[C@@H](Cc1ccccc1)C(=O)NCC(=O)O [CTX-1125] (H-[dY]V[Nle][dA]HFR[dW]DRFG-OH) by its remaining at 0.5 h, 1 µM when you get a moment.
[A] high

[Q] Please classify: CCCC[C@H](NC(=O)[C@@H](NC(=O)[C@@H](N)Cc1ccc(O)cc1)C(C)C)C(=O)N[C@H](C)C(=O)N[C@@H](Cc1c[nH]cn1)C(=O)N[C@@H](Cc1ccccc1)C(=O)N[C@@H](CCCNC(=N)N)C(=O)N[C@H](Cc1c[nH]c2ccccc12)C(=O)N[C@@H](CC(=O)O)C(N)=O [CTX-1108, Tyr-Val-Nle-D-Ala-His-Phe-Arg-D-Trp-Asp] (H-YV[Nle][dA]HFR[dW]D-NH2)
[A] low

[Q] State the band of CCCC[C@H](NC(=O)[C@@H](NC(=O)[C@@H](N)Cc1ccc(O)cc1)C(C)C)C(=O)N[C@H](C)C(=O)N[C@@H](Cc1c[nH]cn1)C(=O)N[C@@H](Cc1ccc(Br)cc1)C(=O)N[C@@H](CCCNC(=N)N)C(=O)N[C@H](Cc1c[nH]c2ccccc12)C(=O)N[C@@H](CC(=O)O)C(=O)N[C@@H](CCCNC(=N)N)C(=O)N[C@@H](Cc1ccccc1)C(=O)NCC(=O)O [CTX-2120] (H-YV[Nle][dA]H[Phe(4-Br)]R[dW]DRFG-OH)
[A] medium

Okay, next one:
[Q] Input CCCC[C@H](NC(=O)[C@@H](NC(=O)[C@@H](N)Cc1ccc(O)cc1)C(C)C)C(=O)N[C@H](C)C(=O)N[C@@H](Cc1c[nH]cn1)C(=O)N[C@@H](Cc1ccccc1)C(=O)N[C@@H](CCCNC(=N)N)C(=O)N[C@H](Cc1c[nH]c2ccccc12)C(=O)N[C@@H](CC(=O)O)C(=O)N[C@@H](CCCNC(=N)N)C(=O)N[C@@H](Cc1ccccc1)C(=O)NCC(=O)O [CTX-1103] (H-YV[Nle][dA]HFR[dW]DRFG-OH) ; output its category
[A] low
